biological target: T1, Insulin receptor prepared according to Bass et al., 1996: soluble human insulin receptor-immunoglobulin heavy … (human, UniProt P06213 28-956); experiment: phage ELISA vs milk
T1 construct: extracellular domain; Eu3+-labelled in TR-FRET; also called IR; sIR-Fc; not shown: immunoglobulin heavy chain constant domains that replace the transmembrane and i
Positions of bridges follow the written chain, without caps; N, C: chain ends. No end group written: not given here.
Please mark met if the recorded Ratio over Background is equal to or greater than 1 fold, and not met if it falls below.

Worked examples, 3 binders total:
>>> classification("TLDGGSFEEQFYDWFVRQLSYRTNPD [H2CA-4-G11-IGFR]")
"met"
>>> classification("YRGMLVLGRSSDGAGKVAFERPARIGQTVFAVNFYDWFV [A6L-0-E6-IR]")
"met"
>>> classification("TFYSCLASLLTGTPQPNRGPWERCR (disulfide 5-24 (inferred)) [20C-3-G3-IGFR]")
"met"

Problem: Given the entry ASSASGFYELLQRLAGLGLEV [20E2B-3-C4-1GFR] , answer whether its Ratio over Background meets or surpasses 1 fold.
Result: met

Problem: Given the entry FYDAIDQLVRGSARAGGTRD [R20α-3-2082-IR] , answer whether its Ratio over Background meets or surpasses 1 fold.
Result: met
